Assay: Primary qHTS for Inhibitors of ATXN expression; note: nearly all actives have a fitted effect of over 55% in size
Conditions: HEK-293 ATXN2-luciferase reporter, luminescence, 24 h; series mostly up to 57 µM
In all, about 360,000 compounds went through this assay and about 2,600 (0.72%) were called active. Roughly 5% stayed inconclusive and do not appear here. Calls come from the whole dose curve; as a rule, active = well fitted inhibition curve with a large enough effect; inconclusive = small, poorly fitted or top-dose-only effect; inactive = no such curve, though single readings can be large or run the other way. The list comes from a sample in which actives are over-represented; it also holds close analogues and randomly drawn compounds.
Form entry, call: pick from active, inactive

COc1ccccc1CNC(=O)c1ccccc1NC(=O)c1nsc2ccccc12: inactive
Oc1c(Cl)cc(Cl)c(Cl)c1Cc1c(O)c(Cl)cc(Cl)c1Cl: active
O=[N+]([O-])c1ccccc1/C=C/CN1CCCC(CO)C1 (configuration not stated): inactive
COC(=O)c1sc(NC(=O)c2ccc(OC)cc2OC)nc1C: active
Cc1cc(C)n(-c2nnc(N3CCN(c4ccccc4)CC3)nn2)n1: inactive

Data request: Returns: the outcome recorded for `Cc1ccnc(NC(=O)C2CCN(S(=O)(=O)c3c(C)c(C)cc(C)c3C)CC2)c1` in this assay.
Data returned: active

Data request: Next compound: `Cc1ccc(S(=O)(=O)N2CCC(C(=O)Nc3cc(C)ccc3C)CC2)cc1`
Data returned: inactive

====

Test: Primary qHTS for Inhibitors of ATXN expression; note: nearly all actives have a fitted effect of over 55% in size
Details: HEK-293 ATXN2-luciferase reporter, luminescence, 24 h; series mostly up to 57 µM
The whole screen tested about 360,000 compounds, of which about 2,600 (0.72%) were called active. Roughly 5% stayed inconclusive and do not appear here. The call rests on the fitted dose curve; in most records, active means well fitted inhibition curve with a large enough effect; inconclusive means small, poorly fitted or top-dose-only effect; inactive means no such curve, though single readings can be large or run the other way. The full list was thinned out, with actives kept by preference.
Form entry, call: pick from label 1 (active), label 0 (inactive)

COc1ccc(CC(N)c2csc(NC(=O)Cc3ccccc3)n2)cc1 (stereo not given): label 0
Cc1ccc(C(=O)Nc2cccc(C(F)(F)F)c2)cc1Nc1nc(-c2cccnc2)nc2c1cnn2C: label 1
CCOC(=O)c1ccc(NC(=O)CCn2cnnn2)cc1: label 0
COC(=O)[C@]12CCCCC=C1N(CCC1=CCCCC1)C(=O)[C@H](CC(=O)NCC1CCCCC1)C2: label 0

Data request: Returns: the outcome recorded for `COc1ccc(NC(=O)Cn2c(=O)cc(C)c3c(C)nn(-c4cccc(Cl)c4C)c32)cc1OC` in this assay.
Data returned: label 0

====

Assay: Primary qHTS for Inhibitors of ATXN expression; note: nearly all actives have a fitted effect of over 55% in size
Conditions: HEK-293 ATXN2-luciferase reporter, luminescence, 24 h; series mostly up to 57 µM
In all, about 360,000 compounds went through this assay and about 2,600 (0.72%) were called active. Another 5% or so got no clear call; they are omitted. Calls come from the whole dose curve; as a rule, active = well fitted inhibition curve with a large enough effect; inconclusive = small, poorly fitted or top-dose-only effect; inactive = no such curve, though single readings can be large or run the other way. What follows is part of a selection rich in actives, with near analogues and random picks from the rest.
Form entry, call: pick from active, inactive

Before answering, review these 5 worked examples.
CCCS(=O)(=O)N1CCC(n2c(C(F)(F)F)nc3cccnc32)CC1: inactive
Cc1c(Cl)c([N+](=O)[O-])nn1Cc1ccc(C(=O)N/N=C\c2cc(Cl)ccc2O)o1: active
C=CCn1c(COc2cccc3cccnc23)nnc1SCC(=O)OC: inactive
Cc1ccc(C)c(N2CCN(C(=O)CCCn3c(=O)c4cccn4c4cccnc43)CC2)c1: inactive
CCc1nc2c(cnn2-c2ccc(C)cc2)c(=O)n1-c1ccc(C)cc1: inactive

Data request: Returns: the outcome recorded for CSCCC(c1nnnn1Cc1ccccc1)N1CCN(C/C=C/c2ccccc2)CC1 (stereo not given) in this assay.
Data returned: inactive

Data request: Next compound: `Cc1ccc(C)c(N2CCN(C(=O)CCc3nc4ccccc4[nH]3)CC2)c1`
Data returned: inactive

Data request: Next compound: `Cc1ccc(C)c(N2CCN(C(=O)CCCCCn3c(=S)[nH]c4ccc(N5CCOCC5)cc4c3=O)CC2)c1`
Data returned: active

Data request: Next compound: `O=C(N/N=C\c1ccc(Br)cc1)c1ccc(Cn2cccn2)o1`
Data returned: inactive

Data request: Next compound: `CC(C)c1ccc(NC(=O)c2ccc(Cn3nc(N4CCN(c5ccccc5)CC4)ccc3=O)o2)cc1`
Data returned: inactive

Values from PubChem BioAssay AID1745845
